test system: MDA-N; test: NCI tumour cell line growth inhibition, 48 h
Catalogue of TGI readings, one per entry.
OBSERVABLE: TGI

molecule=c1ccc(/C(=N\Nc2nc3ccccc3s2)c2ccccn2)cc1 result="> 100 µM"
molecule=COc1ccc(NC(=O)NNS(=O)(=O)c2ccc(C)cc2)cc1 result="> 100 µM"
molecule=CC[C@]1(Cc2ccc(OC)c(OC)c2)C=[N+]([O-])O[C@H](OCc2ccccc2)[C@@H]1OC(C)=O result="> 100 µM"
molecule=COc1ccc2[nH]c3c(O)c(-c4c(C)cc5c([nH]c6ccc(OC)cc65)c4O)c(C)cc3c2c1 result="8.22 µM"
molecule="CC1=NNC(=O)C1C1C=C(c2c[nH]c3ccccc23)OC1=O (configuration not stated)" result="> 100 µM"
molecule=Cn1c(N)c(/C=C/C(=O)Oc2ccccc2)c(=O)n(C)c1=O result="> 100 µM"
molecule="COc1ccc(C2=NN(C(=O)c3ccc(Cl)cc3)C(O)(c3cc(F)c(Cl)cc3Cl)C2)cc1 (configuration not stated)" result="> 100 µM"
molecule=CCN1C/C(=C\c2ccc(Cl)cc2)c2[nH]c(=O)c(C#N)c(-c3ccc(Cl)cc3)c2C1 result="> 100 µM"
molecule=Nn1c(CCCCCCCCc2n[nH]c(=S)n2N)n[nH]c1=S result="> 100 µM"
molecule=O=C(Nc1cc2cc([N+](=O)[O-])ccc2oc1=O)c1cccs1 result="> 100 µM"
molecule=O=C(O)c1[nH]c2c([N+](=O)[O-])cc([N+](=O)[O-])cc2c1C(=O)O result="92.9 µM"
molecule=CCOC(=O)c1ccc(N(CCOS(=O)(=O)c2ccc(C)cc2)CCOS(=O)(=O)c2ccc(C)cc2)cc1 result="> 100 µM"
molecule=CCSCCCC(=O)O result="> 100 µM"
molecule=O=C(NCCN(CCNC(=O)c1cccc(=O)n1O)CCNC(=O)c1cccc(=O)n1O)c1cccc(=O)n1O result="> 100 µM"
molecule=C1=Cc2cccc3occ(c23)C=C1 result="> 100 µM"
molecule=N[C@H]1CCN(c2c(F)cc3c(=O)c(C(=O)O)cn4c3c2Oc2c-4ccc3c2ccc2ccccc23)C1 result="> 53.6 µM"
molecule=c1cc2c3ccsc3c3sccc3c2s1 result="> 100 µM"

====

tested on: SF-295 CNS; assay: NCI tumour cell line growth inhibition, 48 h; in the data active means GI50 below about 0.43 µM; inactive means the rest
Labels: 1 = active, 0 = inactive

compound=CCOC(=O)CCSC1=CC(=O)c2nc3ccccc3c3ccnc1c23 qualitative_label=0
compound=CCCCC[C@H]1C/C=C2/C(=O)C(Cl)=C[C@@H]2C/C=C\CCCC(=O)O1 qualitative_label=0
compound=O=C(c1ccc(Nc2nccc(NCCCCNc3ccnc4cc(Cl)ccc34)n2)cc1)N1CCCCC1 qualitative_label=0
compound="C(=C\\c1ccc(OCC2CO2)cc1)/C1=NCOC1 (stereo not given)" qualitative_label=0
compound="O=C(CC1Sc2ccccc2NC1=O)NNc1ccc(F)cc1 (stereo not given)" qualitative_label=0
compound=Nc1no[n+]([O-])c1-c1nnc2c(n1)-c1ccccc1C2=O qualitative_label=0
compound="C=C1C(O)C2CC(C)(C)C(=O)C2=C(CC(C)C)C12CC2 (stereo not given)" qualitative_label=0
compound=C=C1C(=O)O[C@H]2[C@H]1CC/C(COC(=O)/C=C\C(=O)NCc1ccc(Cn3c(=O)sn(-c4ccc(Cl)cc4)c3=O)cc1)=C\CC[C@@]1(C)O[C@@H]21 qualitative_label=0
compound="Cc1nccn1CC1CCc2c(c3ccccc3n2C)C1=O (stereo not given)" qualitative_label=0
compound=Cc1nn(-c2ccccc2)c2nc(C)n(-c3ccc(Br)cc3)c(=O)c12 qualitative_label=1
